- system under test: T1, Human Nectin-4 (human, UniProt Q96NY8 32-349, limits assumed)
- T1 construct: Protein immobilised on the SPR chip; also called target protein
- T1 sequence: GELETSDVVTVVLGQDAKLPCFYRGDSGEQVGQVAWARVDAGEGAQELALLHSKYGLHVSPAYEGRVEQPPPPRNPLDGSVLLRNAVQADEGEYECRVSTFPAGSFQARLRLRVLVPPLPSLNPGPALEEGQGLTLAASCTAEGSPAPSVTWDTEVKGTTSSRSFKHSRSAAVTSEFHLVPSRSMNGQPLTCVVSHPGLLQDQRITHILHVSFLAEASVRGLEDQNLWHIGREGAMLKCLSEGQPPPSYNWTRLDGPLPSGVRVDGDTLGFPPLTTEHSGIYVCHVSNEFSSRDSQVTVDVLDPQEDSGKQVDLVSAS
- assay text: Table 2B (DELFIA or SPR)
Bridges are numbered along the chain shown (N, C = ends). Primed or numbered codes have the meaning given here. Where no end group is shown, it is not given here. [ ]: non-standard residue; d: D form. The star is where a group is joined. Biotin = O=C1N[C@H]2[C@H](CS[C@H]2CCCCC(=O)*)N1; PEG4″ = 4(ethylene glycol); Nle = CCCC[C@H](N)C(=O)O
measure: pKd
One number for each entry, as −log10 of the molar value.

- binder: "{Biotin-PEG4″}-CEYDEQFFTALKRLRGADICSYIQASFQYLPGLCIEEILDNLGCS (designed binder, disulfide 1-34, 20-44) [C185]"
  pKd: 9.00
- binder: "Ac-CEYDEEFFTGLKRLRGGTICYYIKKKFKKVPDLCIEEILDKLGC-OH (designed binder, disulfide 1-34, 20-44) [C41]"
  pKd: 8.25
- binder: "Ac-CEYDEEFFEGLKRLRGGDICYYIKKKFKKVPDLCIEEILDKLGC-OH (designed binder, disulfide 1-34, 20-44) [C26]"
  pKd: 8.30
- binder: "{Biotin-PEG4″}-CEYDEEFFTALKRLRGGDICEYIQA[Nle]FQYLPGLCIEEILDNLGCS-OH (designed binder, disulfide 1-34, 20-44) [C199]"
  pKd: 8.46

**Query** Give the reported value of pKd for this record: Ac-CEYDEEFFNGLKRLRRGDICYYIKKKFDKVPDLCIEEILDKLGC-OH (designed binder, disulfide 1-34, 20-44) [C15]
**Result** 7.91
